Target: FGFR1 (h) (Homo sapiens)
Sequence (P11362 22-822): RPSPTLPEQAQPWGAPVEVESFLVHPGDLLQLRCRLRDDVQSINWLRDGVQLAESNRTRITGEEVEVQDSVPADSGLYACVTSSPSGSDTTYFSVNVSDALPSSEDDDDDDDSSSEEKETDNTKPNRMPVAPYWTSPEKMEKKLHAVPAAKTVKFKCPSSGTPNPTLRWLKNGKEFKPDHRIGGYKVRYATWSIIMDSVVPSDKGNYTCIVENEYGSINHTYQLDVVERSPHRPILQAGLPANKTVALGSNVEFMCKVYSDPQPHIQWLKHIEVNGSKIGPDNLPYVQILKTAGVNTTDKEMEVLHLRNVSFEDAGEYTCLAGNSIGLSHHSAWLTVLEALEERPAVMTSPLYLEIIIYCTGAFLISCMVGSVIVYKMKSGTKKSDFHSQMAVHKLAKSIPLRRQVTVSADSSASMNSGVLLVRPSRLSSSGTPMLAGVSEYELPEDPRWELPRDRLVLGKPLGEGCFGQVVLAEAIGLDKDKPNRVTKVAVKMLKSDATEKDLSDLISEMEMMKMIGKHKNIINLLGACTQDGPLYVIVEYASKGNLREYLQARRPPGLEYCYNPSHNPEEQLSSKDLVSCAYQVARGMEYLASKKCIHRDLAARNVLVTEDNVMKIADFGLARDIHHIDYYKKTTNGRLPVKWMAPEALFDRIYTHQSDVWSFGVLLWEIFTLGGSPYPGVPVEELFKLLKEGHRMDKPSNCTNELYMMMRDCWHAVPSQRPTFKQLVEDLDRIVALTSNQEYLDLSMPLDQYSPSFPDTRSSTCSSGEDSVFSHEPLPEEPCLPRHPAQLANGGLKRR
Assay: FGFR1 (enzymatic assay), TR-FRET
Type: biochemical
Conditions: read-out: FGFR 1 pIC50 (converted)
# Lookup of reported log10(IC50) keyed by entry
Could you please treat all values as log10 of IC50 in nM?

Some compounds with recorded log10(IC50):
compound	log10(IC50)
COc1cc(/N=c2\ccc3ncc(-c4cnn(C)c4)nc3n2CC2CCCOC2)cc(OC)c1 (stereo not shown)	0.06
COc1cc(/N=c2\ccc3ncc(-c4cnn(C)c4)nc3n2CC2CC(O)C(=O)N2)cc(OC)c1 (stereo not shown)	-0.01
COc1ccc(Cl)c(N(CC2CCC(=O)N2)c2ccc3ncc(-c4cnn(C)c4)nc3n2)c1Cl (stereo not shown) [Compound 94]	1.99
COc1cc(OC)c(F)c(N(Cc2noc(C)n2)c2ccc3ncc(-c4cnn(C)c4)nc3n2)c1	-0.10
COc1cc(OC)c(F)c(N(CCN(C2COC2)C2COC2)c2ccc3ncc(-c4cnn(C)c4)nc3n2)c1	0.35

Kindly consider the entry below.
Ask: Can you look up the measured log10(IC50) of COc1cc(OC)cc(N(CCS(C)(=O)=O)c2ccc3ncc(-c4cnn(CCS(C)(=O)=O)c4)nc3n2)c1 for me?
Reply: 0.77

----------
Target: FGFR2 (h) (Homo sapiens, UniProt P21802)
Sequence (P21802 22-821): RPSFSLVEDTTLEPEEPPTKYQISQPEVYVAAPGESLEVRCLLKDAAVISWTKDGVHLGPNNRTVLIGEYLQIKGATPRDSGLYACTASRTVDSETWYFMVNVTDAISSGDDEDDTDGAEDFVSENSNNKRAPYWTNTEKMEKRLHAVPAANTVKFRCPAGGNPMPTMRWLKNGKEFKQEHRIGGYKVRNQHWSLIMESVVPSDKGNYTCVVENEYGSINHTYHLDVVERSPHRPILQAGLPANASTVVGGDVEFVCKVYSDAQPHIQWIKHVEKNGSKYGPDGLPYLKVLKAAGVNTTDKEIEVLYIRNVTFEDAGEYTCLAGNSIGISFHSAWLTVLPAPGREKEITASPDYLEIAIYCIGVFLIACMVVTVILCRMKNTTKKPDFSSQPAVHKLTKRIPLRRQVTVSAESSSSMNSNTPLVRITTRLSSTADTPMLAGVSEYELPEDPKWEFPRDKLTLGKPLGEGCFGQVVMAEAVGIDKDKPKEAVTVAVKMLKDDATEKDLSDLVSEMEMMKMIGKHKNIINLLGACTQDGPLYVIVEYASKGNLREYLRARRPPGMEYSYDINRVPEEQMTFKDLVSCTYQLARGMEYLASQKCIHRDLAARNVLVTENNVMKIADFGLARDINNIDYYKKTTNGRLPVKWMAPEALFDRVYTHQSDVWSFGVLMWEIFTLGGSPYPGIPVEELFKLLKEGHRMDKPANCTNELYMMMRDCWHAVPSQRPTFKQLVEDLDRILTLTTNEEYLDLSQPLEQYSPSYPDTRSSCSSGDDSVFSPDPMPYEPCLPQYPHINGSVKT
Test: FGFR2 (enzymatic assay), TR-FRET
Assay type: biochemical
Conditions: enzymatic assay; read-out: FGFR 2 pIC50 (converted)
Below: a set of entries, each annotated with reported IC50.
Entry rule: numbers only, all in nM.

molecule	assayed target	IC50, nM
COc1cc(OC)c(F)c(N(CCCN2CCCC2=O)c2ccc3ncc(-c4cnn(C)c4)nc3n2)c1	FGFR2 (h) (Homo sapiens, UniProt P21802)	3.02
COc1cc(/N=c2\ccc3ncc(-c4cnn(C)c4)nc3n2CC2CCOC2)c(F)c(OC)c1 (single isomer, unassigned)	FGFR2 (h) (Homo sapiens, UniProt P21802)	1.62
COc1cc(OC)cc(N(Cc2ncc[nH]2)c2ccc3ncc(-c4cccnc4)nc3n2)c1	FGFR2 (h) (Homo sapiens, UniProt P21802)	2.04

Ask: Look up IC50 with FGFR2 (h) (Homo sapiens, UniProt P21802) for this molecule: COc1cc(OC)c(F)c(N(Cc2ncc[nH]2)c2ccc3ncc(-c4cnn(CC(C)(C)O)c4)nc3n2)c1
Reply: 2.57

Ask: Identify the measured IC50 of COc1cc(/N=c2\ccc3ncc(-c4cnn(C)c4)nc3n2CC2CC(O)C(=O)N2)c(F)c(OC)c1 (stereo not drawn) for FGFR2 (h) (Homo sapiens, UniProt P21802).
Reply: 2.09

----------
Target: Ba/F3-FGFR1-transfected cells (Homo sapiens)
Construct: BAF3-FGFR1 (MIN IL3) pIC50; other: minus IL3
Assay: Ba/F3-FGFR1 (minus IL3) cellular proliferation assay, Alamar Blue
Type: cell-based
compounds and their reported BAF3-FGFR1 (MIN IL3) pIC50

Here's what some known entries look like.
compound	experimental value
CCN(c1ccc2ncc(-c3cnn(C)c3)nc2n1)c1c(F)c(OC)cc(OC)c1F	8.05
COc1cc(OC)c(F)c(/N=c2\ccc3ncc(-c4cnn(C)c4)nc3n2CCN(C2COC2)C2COC2)c1F	8.01
COc1cc(OC)c(F)c(N(Cc2nc(Br)c[nH]2)c2ccc3ncc(-c4cnn(C)c4)nc3n2)c1	~8.32

Ask: Record request: BAF3-FGFR1 (MIN IL3) pIC50 value, item COc1cc(OC)c(F)c(/N=c2\ccc3ncc(-c4cnn(C)c4)nc3n2CC2CC2)c1F (single isomer, unassigned)
Reply: 7.98

----------
In this section, each of the molecules is paired with its reported BAF3-FGFR1 (MIN IL3) pIC50.
Molecular target: Ba/F3-FGFR1-transfected cells (Homo sapiens, UniProt P11362)
Construct: BAF3-FGFR1 (MIN IL3) pIC50; other: minus IL3
Sequence (P11362 whole entry, change not shown): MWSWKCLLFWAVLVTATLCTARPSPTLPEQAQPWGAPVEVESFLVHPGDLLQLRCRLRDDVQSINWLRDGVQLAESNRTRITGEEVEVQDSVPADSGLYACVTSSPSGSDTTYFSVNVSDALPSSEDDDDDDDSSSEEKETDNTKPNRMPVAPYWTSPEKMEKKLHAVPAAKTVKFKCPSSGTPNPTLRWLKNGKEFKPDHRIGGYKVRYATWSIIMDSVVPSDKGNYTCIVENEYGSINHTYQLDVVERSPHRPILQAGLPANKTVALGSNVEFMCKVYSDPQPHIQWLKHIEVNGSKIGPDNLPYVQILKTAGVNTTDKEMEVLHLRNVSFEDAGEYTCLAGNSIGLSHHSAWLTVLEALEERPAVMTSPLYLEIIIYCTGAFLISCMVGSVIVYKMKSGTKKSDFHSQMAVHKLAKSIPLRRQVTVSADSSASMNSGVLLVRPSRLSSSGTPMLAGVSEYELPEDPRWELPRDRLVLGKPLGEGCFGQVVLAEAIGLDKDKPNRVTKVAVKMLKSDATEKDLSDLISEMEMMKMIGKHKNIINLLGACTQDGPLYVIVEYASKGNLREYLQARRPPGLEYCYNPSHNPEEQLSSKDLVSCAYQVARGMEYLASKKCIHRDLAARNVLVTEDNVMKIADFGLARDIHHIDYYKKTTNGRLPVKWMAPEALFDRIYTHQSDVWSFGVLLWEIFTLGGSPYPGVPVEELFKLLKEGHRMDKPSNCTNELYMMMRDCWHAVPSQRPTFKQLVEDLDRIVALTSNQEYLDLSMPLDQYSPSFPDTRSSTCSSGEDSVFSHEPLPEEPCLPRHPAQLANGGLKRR
Test: Ba/F3-FGFR1 (minus IL3) cellular proliferation assay, Alamar Blue
Type: cell-based
I only need the number, thanks.

Worked examples, 4 molecules total:
molecule	experimental value
COc1cc(/N=c2\ccc3ncc(-c4cnn(C)c4)nc3n2CC2COC(=O)N2)c(F)c(OC)c1 (stereo not shown) [Compound 123]	7.21
Cn1cc(-c2cnc3ccc(N(Cc4ncc[nH]4)c4c(F)c(F)cc(F)c4F)nc3n2)cn1	6.87
CNCCn1/c(=N/c2cc(OC)cc(OC)c2F)ccc2ncc(-c3cnn(C)c3)nc21	6.92
COc1cc(OC)cc(N(CCN2CCOCC2)c2ccc3ncc(-c4cnn(C)c4)nc3n2)c1	6.87

Ask: Name the recorded BAF3-FGFR1 (MIN IL3) pIC50 for COc1cc(OC)c(F)c(N(Cc2cc(C)on2)c2ccc3ncc(-c4cnn(C)c4)nc3n2)c1 .
Reply: 7.43

Ask: Form field: reported BAF3-FGFR1 (MIN IL3) pIC50 of COCC(O)Cn1c(=Nc2c(F)c(OC)cc(OC)c2F)ccc2ncc(-c3cnn(C)c3)nc21 (stereo not shown)
Reply: 8.48

Ask: Item under review: COc1cc(OC)c(F)c(N(Cc2ccn(C)n2)c2ccc3ncc(-c4cnn(C)c4)nc3n2)c1 . Reported BAF3-FGFR1 (MIN IL3) pIC50?
Reply: 8.10

Ask: Field request: BAF3-FGFR1 (MIN IL3) pIC50 | item: CNCCN(c1ccc2ncc(-c3cnn(C)c3)nc2n1)c1c(F)ccc(OC)c1Cl
Reply: 7.06

----------
Target: Ba/F3-FGFR3-transfected cells (Homo sapiens, UniProt P22607)
Construct: BAF3-FGFR3 (MIN IL3) pIC50; other: minus IL3
Sequence (P22607 whole entry, change not shown): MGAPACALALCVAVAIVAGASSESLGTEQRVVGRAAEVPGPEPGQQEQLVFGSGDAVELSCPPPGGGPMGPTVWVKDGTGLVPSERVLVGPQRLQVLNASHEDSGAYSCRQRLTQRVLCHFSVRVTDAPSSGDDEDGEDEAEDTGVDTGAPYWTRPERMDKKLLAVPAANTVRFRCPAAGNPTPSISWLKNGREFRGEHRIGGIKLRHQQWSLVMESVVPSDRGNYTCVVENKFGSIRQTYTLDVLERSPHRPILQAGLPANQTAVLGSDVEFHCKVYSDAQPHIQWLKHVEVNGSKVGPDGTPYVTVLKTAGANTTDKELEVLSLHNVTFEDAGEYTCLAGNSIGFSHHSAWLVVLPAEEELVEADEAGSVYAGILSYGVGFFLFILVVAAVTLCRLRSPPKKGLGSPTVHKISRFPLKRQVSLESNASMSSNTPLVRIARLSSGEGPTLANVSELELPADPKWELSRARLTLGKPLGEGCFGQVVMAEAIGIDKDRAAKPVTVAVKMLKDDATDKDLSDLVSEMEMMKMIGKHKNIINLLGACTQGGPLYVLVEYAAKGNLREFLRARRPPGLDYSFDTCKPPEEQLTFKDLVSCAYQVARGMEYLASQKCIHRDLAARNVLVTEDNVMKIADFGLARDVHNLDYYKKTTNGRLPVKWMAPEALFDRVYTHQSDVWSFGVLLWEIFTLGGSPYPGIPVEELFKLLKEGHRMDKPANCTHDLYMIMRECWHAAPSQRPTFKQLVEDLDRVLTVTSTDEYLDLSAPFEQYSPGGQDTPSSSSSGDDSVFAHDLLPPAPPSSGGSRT
Experiment: Ba/F3-FGFR3 (minus IL3) cellular proliferation assay, Alamar Blue
Assay type: cell-based
BAF3-FGFR3 (MIN IL3) pIC50 reference

compound	BAF3-FGFR3 (MIN IL3) pIC50
COc1cc(/N=c2\ccc3ncc(-c4cnn(C)c4)nc3n2CCNC(C)C)c(F)c(OC)c1 [Compound 37]	~7.65
COc1cc(OC)cc(N(CC#Cc2ncccc2OC)c2ccc3ncc(-c4cnn(C)c4)nc3n2)c1 [Compound 26]	~5.55
COc1cc(OC)c(F)c(N(Cc2nn[nH]n2)c2ccc3ncc(-c4cnn(C)c4)nc3n2)c1 [Compound 140]	<5

Ask: Field request: BAF3-FGFR3 (MIN IL3) pIC50 | item: COc1cc(OC)c(C)c(N(Cc2ncc[nH]2)c2ccc3ncc(-c4cnn(C)c4)nc3n2)c1 [Compound 273]
Reply: ~8.60

Ask: Sample COc1cc(OC)c(F)c(N(CC(C)(C)O)c2ccc3ncc(-c4cnn(CC(C)(C)O)c4)nc3n2)c1 (single isomer, unassigned) [Compound 208] — what was its BAF3-FGFR3 (MIN IL3) pIC50?
Reply: ~7.15

----------
Molecular target: Ba/F3-FGFR1-transfected cells (Homo sapiens, UniProt P11362)
Construct: BAF3-FGFR1 (MIN IL3) pIC50; other: minus IL3
Experiment: Ba/F3-FGFR1 (minus IL3) cellular proliferation assay, Alamar Blue
Format: cell-based
As shown below, each of these compounds has a reported BAF3-FGFR1 (MIN IL3) pIC50 value.

# annotated cases, reported BAF3-FGFR1 (MIN IL3) pIC50 shown
compound	BAF3-FGFR1 (MIN IL3) pIC50
COc1cc(/N=c2\ccc3ncc(-c4cnn(C)c4)nc3n2CCCN2CCCC2=O)c(F)c(OC)c1 [Compound 119]	~7.92
COc1cc(OC)cc(N(CC2CCCCO2)c2ccc3ncc(-c4cnn(C)c4)nc3n2)c1 (stereo not drawn) [Compound 129]	~7.15

Ask: Which measured BAF3-FGFR1 (MIN IL3) pIC50 value corresponds to COc1cc(OC)c(F)c(N(Cc2c[nH]c(C)n2)c2ccc3ncc(-c4cnn(C)c4)nc3n2)c1 [Compound 137] ?
Reply: ~8.11

----------
Listing of recorded BAF3-FGFR4 pIC50 by entry.
Biological target: Ba/F3-FGFR4-transfected cells (Homo sapiens, UniProt P22455)
Sequence (P22455 whole entry, change not shown): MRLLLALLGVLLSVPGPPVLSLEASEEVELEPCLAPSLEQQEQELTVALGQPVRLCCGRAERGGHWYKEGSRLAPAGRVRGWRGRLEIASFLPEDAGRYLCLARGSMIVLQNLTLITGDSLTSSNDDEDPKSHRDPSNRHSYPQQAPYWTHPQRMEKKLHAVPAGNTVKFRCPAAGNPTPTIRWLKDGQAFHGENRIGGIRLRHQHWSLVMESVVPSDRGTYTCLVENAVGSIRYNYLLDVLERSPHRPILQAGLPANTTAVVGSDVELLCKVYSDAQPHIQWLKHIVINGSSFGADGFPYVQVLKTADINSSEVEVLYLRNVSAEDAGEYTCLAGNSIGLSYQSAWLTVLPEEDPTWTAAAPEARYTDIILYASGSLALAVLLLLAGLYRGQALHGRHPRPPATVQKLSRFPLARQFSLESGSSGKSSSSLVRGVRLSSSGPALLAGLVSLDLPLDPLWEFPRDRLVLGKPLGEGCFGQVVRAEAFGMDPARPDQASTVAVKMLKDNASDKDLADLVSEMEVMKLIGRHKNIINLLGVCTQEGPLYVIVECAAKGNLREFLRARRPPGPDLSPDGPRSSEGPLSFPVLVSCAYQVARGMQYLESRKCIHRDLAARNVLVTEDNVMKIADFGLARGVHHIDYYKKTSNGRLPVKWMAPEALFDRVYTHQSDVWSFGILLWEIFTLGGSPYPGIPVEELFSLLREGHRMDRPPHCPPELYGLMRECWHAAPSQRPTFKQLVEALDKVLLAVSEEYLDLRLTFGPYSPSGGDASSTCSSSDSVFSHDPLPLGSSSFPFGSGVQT
Assay: Ba/F3-FGFR4 cellular proliferation assay, Alamar Blue
Assay type: cell-based

molecule	assayed target	BAF3-FGFR4 pIC50
COc1cc(/N=c2\ccc3ncc(-c4cnn(C)c4)nc3n2CCCN2CCCC2=O)c(F)c(OC)c1	Ba/F3-FGFR4-transfected cells (Homo sapiens, UniProt P22455)	7.28

Ask: Given the entry COc1cc(/N=c2\ccc3ncc(-c4cnn(C)c4)nc3n2CC2CCC(=O)N2)cc(OC)c1 (stereo not shown) , report its measured BAF3-FGFR4 pIC50.
Reply: 6.25

Ask: Dear colleague, I am looking for the recorded BAF3-FGFR4 pIC50 of the following molecule: COc1cc(/N=c2\ccc3ncc(-c4cnn(C)c4)nc3n2CCN2CCCC2=O)cc(OC)c1
Reply: 6.18

Ask: Record request: BAF3-FGFR4 pIC50 value, item COc1cc(OC)cc(N(CC(O)C(F)(F)F)c2ccc3ncc(-c4cnn(C)c4)nc3n2)c1 (single isomer, unassigned) [Compound 34]
Reply: 6.64

From: patent US9309242B2
